- System: UO-31 renal
- assay-overview: NCI-60 one-dose screen, 48 h (100 = growth as untreated, 0 = no growth, -100 = all killed)
- assay-setup: 10 µM
This is part of a sample that, as a whole, favours compounds with a hit. Of some 83,000 tested, about 20% had one in any assay.
property-measured: growth (%)
One number for each entry, in %.

Example cases with answers are listed next.
O=C1c2cc(Cl)ccc2-c2c(O)cc(Cl)cc21 :: 49.6
CCCCCCOc1ccc(/C=C/C(=O)c2ccc(B(O)O)cc2)cc1 :: 51.6
Oc1ccc(Cn2cc3c(c2-c2ccccc2)CCc2cnoc2-3)cc1 :: 88.8

Give measured growth for every item shown.
1. COc1ccc(-c2nsc3c2NC(=O)CC3c2ccc(Cl)cc2)cc1 (stereo unspecified)
2. COc1ccc(/C(CS(=O)(=O)c2ccccc2)=N\O)cc1

62.8
104

Provide growth for all items below, preserving their order.
1. COc1ccc(S(=O)(=O)Nc2cc(/C=C\c3cc(OC)c(OC)c(OC)c3)ccc2OC)cc1
2. Nc1ccccc1NC(=O)CCCCCCC(=O)Nc1ccc2c(c1)/C(=C/c1ccc[nH]1)C(=O)N2
3. Nc1nc2c(ncn2C2OC3COP(=O)(O)OC4C(COP(=O)(O)OC2C3O)OC(n2cnc3c(N)ncnc32)C4O)c(=O)[nH]1 (stereo unspecified)
4. CN(C1c2ccccc2Oc2ccccc21)S(=O)(=O)c1cc(Cl)ccc1Cl
5. NC(N)=NS(=O)(=O)c1ccc(Nc2ccc3nnc(-c4ccncc4)n3n2)cc1
6. Nc1ccc2c(c1)Cc1cc(N)c(Cl)cc1-2
7. CCN(CC)CCOC(=O)c1ccc(N=Nc2ccc(O)c(OC)c2)cc1

1. 24.6
2. 29.1
3. 104
4. 49.5
5. 78.6
6. 52.6
7. 87.8

---

- Tested on: A549/ATCC NSCLC
- assay-overview: NCI-60 one-dose screen, 48 h
- assay-setup: 10 µM
Compounds without any hit were thinned out: in the full panel of roughly 83,000, 20% have a hit. Active and inactive are the calls of the source. The calls were made as follows: active = growth percent below 10; inactive = the rest.
Use one of these outcomes when replying: 1.0 = active, 0.0 = inactive

Cc1cccc2c(Nc3ccc(NS(C)(=O)=O)cc3)c3ccc([N+](=O)[O-])cc3nc12 :: 1.0

// param item: "COc1ccc(-c2nnc(SC/C(=N\O)c3ccccc3)o2)cc1" ; yields the recorded call 0.0

Give the logged outcome of this assay for the following compound: "CCOC(=O)c1c(O)c2cc(-c3ccccc3)nc(OCC)c2c(=O)n1C" 0.0

Which outcome was assigned to "Cc1ccc(-c2cc(C(=O)Nc3ccc(S(=O)(=O)N4CCCCC4)cc3)[nH]n2)c(O)c1" in this test? 0.0

Kindly provide the recorded test outcome for the following compound: "CCc1ccc(Nc2cc(C)nc3nc(C)nn23)cc1" 1.0

Write down the call the test reported for this compound. Item: "Cc1nc(N)sc1Sc1nc2ccc(Cl)cc2c(=O)n1-c1ccc(Oc2ccccc2)cc1" 0.0

---

- Tested on: HOP-92 NSCLC
- assay-overview: NCI-60 one-dose screen, 48 h
- assay-setup: 10 µM
About 83,000 compounds went through this panel and 20% of them were active in at least one assay; those are over-represented in the sample as a whole. Activity calls are given as the source filed them. The calls were made as follows: active = growth percent below 10; inactive = the rest.
One label from this list, please: Y (active), N (inactive)

Would you please look over these solved cases?
O=[N+]([O-])c1ccc(-c2nc(Cl)c3c(n2)CCCC3)o1 :: N
O=C1CC[C@@H](C(=O)N[C@H]2CSSC[C@@H](C(=O)N/C=C/c3ccc(O)cc3)NC(=O)[C@H](Cc3ccccc3)NC(=O)[C@@H]3CCCN3C(=O)[C@@H]3CCCN3C2=O)N1 :: N
Cc1ccccc1[P+](Cc1ccccc1)(c1ccccc1)c1ccccc1 :: Y
COc1ccc(-c2nnc(SCC(=O)c3ccccc3)o2)cc1 :: N
Cc1ccc(C)c2c1sc1nc3n[nH]c(N)c3c(=N)n12 :: N

Hello, I am checking results. What call was entered for "COC(=O)c1ccc(Cn2ccc(=O)[nH]c2=O)cc1" ? N

Hello, I am checking results. What call was entered for "COc1ccccc1NC1=C(N2CCCCC2)C(=O)c2ccccc2C1=O" ? N

Can you look up the reported call for "COc1cc(/C=C/C(=O)c2cc(-c3ccc(C(F)(F)F)cc3)ccc2O)cc(OC)c1OC" for me? N

How did this test come out for "O=C1/C(=C/c2ccc([N+](=O)[O-])s2)Oc2ccc(Cl)cc21" ? Y

How did this test come out for "C=CCn1ccc(=O)nc1SC" ? N

---

Provide the recorded growth for the entries that follow.
- Test system: COLO 205 colon
- assay-overview: NCI-60 one-dose screen, 48 h (100 = growth as untreated, 0 = no growth, -100 = all killed)
- assay-setup: 10 µM
The panel holds about 83,000 compounds, 20% with a hit somewhere; the sample as a whole holds those more often.
Answers are plain numbers, in %.

Below are worked cases with known answers.
COc1cc(/C=C2\C(=O)Nc3cc(C)c(O)cc32)cc(OC)c1OC :: 69.1
Cc1cc2cc3c(=O)[nH]c(=O)cc-3n(CC(O)C(O)C(O)CO)c2cc1C (stereo not given) :: 93.1
O=C(O)CCCN1C(=O)NC2(C1=O)c1ccccc1-c1ccccc12 :: 108
c1ccc(OCCC[P+](c2ccccc2)(c2ccccc2)c2ccccc2)cc1 :: -35.6
COc1ccc(-c2nnc(SCC(=O)c3ccccc3)o2)cc1 :: 107

Please state, for each entry, its recorded growth.
1. Cc1cc(C)c(/C=C2\C(=O)Nc3ccc(NC(=O)CCCCCCC(=O)NO)cc32)[nH]1
2. O=C(O)c1ccc(CNc2ccc(C(=O)CCl)cc2)cc1

3.61
97.3

Each of the following entries comes with a recorded value; kindly state growth for each.
1. O=C(c1ccc(Cl)cc1)c1no[n+]([O-])c1C(=O)c1ccc(Cl)cc1
2. O=NN(CCCl)C(=O)NCc1ccc(-c2ccc(CNC(=O)N(CCCl)N=O)cc2)cc1
3. CC1=CC2OC34COC3CC(OC(=O)C(F)(F)F)C4(C)C2(C)CC1 (stereo not given)

[107, 104, 99.7]

---

Provide the recorded growth for the entries that follow.
- System: M14 melanoma
- assay-overview: NCI-60 one-dose screen, 48 h (100 = growth as untreated, 0 = no growth, -100 = all killed)
- assay-setup: 10 µM
Compounds without any hit were thinned out: in the full panel of roughly 83,000, 20% have a hit.
Numbers only, in %.

COC(=O)[C@]12CC[C@@H](C)[C@H](C)[C@@H]1C1=CC[C@@H]3[C@@]4(C)C/C(=N\O)[C@H](O)[C@@]5(C)COC(=C45)C[C@@]3(C)[C@]1(C)CC2 :: -82.3

Required: growth, one value per compound below.
1. COc1cc(Cn2c(-c3ccccc3)cc3c2-c2oncc2CC3)cc(OC)c1
2. COc1ccc(Cn2cc3c(c2-c2ccccc2)CC(C)(C)c2cnoc2-3)cc1
3. FC(F)(F)c1ccc(-c2ncc(-c3ccc(C(F)(F)F)cc3)c(NCc3cc(C(F)(F)F)cc(C(F)(F)F)c3)n2)cc1

1. 0.789
2. 40.1
3. 73.8

---

- Tested on: M14 melanoma
- assay-overview: NCI-60 one-dose screen, 48 h (100 = growth as untreated, 0 = no growth, -100 = all killed)
- assay-setup: 10 µM
This is part of a sample that, as a whole, favours compounds with a hit. Of some 83,000 tested, about 20% had one in any assay. Activity calls are given as the source filed them. The calls were made as follows: active = growth percent below 10; inactive = the rest.
property-measured: growth

Sample answers from the record:
Cc1ccc(S(=O)(=O)Nc2cccc3[nH]c(C(F)(F)F)nc23)cc1 :: 15.2% (inactive)
CN(C1c2ccccc2Oc2ccccc21)S(=O)(=O)c1cc(Cl)ccc1Cl :: 39.2% (inactive)
Nc1nc2c(nnn2C2CC(O)C(CO)O2)c(=O)[nH]1 (stereo unspecified) :: 40% (inactive)
COc1ccc(-c2[nH]ncc2/C=C/c2cc(C(F)(F)F)[nH]c(=O)n2)cc1 :: 98.7% (inactive)
COc1cc(/C=C/C(=O)c2cc(-c3ccc(F)cc3)ccc2O)cc(OC)c1OC :: 86.2% (inactive)

Now consider a different compound.
// fetch growth given entry "COc1cc(-c2cc(/C=C/C(C)=O)[nH]n2)cc(OC)c1OC" 84.9% (inactive)

---

- System: RXF 393 renal
- assay-overview: NCI-60 one-dose screen, 48 h (100 = growth as untreated, 0 = no growth, -100 = all killed)
- assay-setup: 10 µM
About 83,000 compounds went through this panel and 20% of them were active in at least one assay; those are over-represented in the sample as a whole.
property-measured: growth (%)
One number for each entry, in %.

COc1cc(Cn2c(-c3ccccc3)c(Cl)c3c2-c2oncc2CC3)cc(OC)c1 :: 115

Quick one: give me growth for each item below, same order please.
1. COc1ccc(CCc2nc3cc(-c4c(C)noc4C)ccc3n2CCN2CCOCC2)cc1
2. CNC(=O)c1cc(Oc2ccc(NC(=O)Nc3ccc(Cl)c(OC(C)C)c3)c(F)c2)ccn1
3. O=C(c1ccc(Cl)cc1)c1no[n+]([O-])c1C(=O)c1ccc(Cl)cc1

1: 70.1; 2: 87.6; 3: 44.6
